- method-summary: MRT(0 to t) in Sprague-Dawley rat at 5 mg/kg, iv measured upto 24 hrs
- Format: ADME, organism-based
- cond: in vivo
observed-property: MRT last at 24 h (min)
Field: numeric (min). Do not append units.

## Input Requested read-out: MRT last at 24 h. Entry: `C[C@H]1CCC/C=C/[C@@H]2C[C@H](O)C[C@H]2[C@H](OC(=O)c2cccnc2)/C=C/C(=O)O1`
## Output 8.4

----------
Listed here: items and their measured IC50 at 72 h.
- method-summary: Cytotoxicity against human LO2 cells measured after 72 hrs by MTT assay
- Assay type: toxicity, cell-based, L02
Field: numeric (nM). Do not append units.

compound: C[C@H]1CCC/C=C/[C@@H]2C[C@H](O)C[C@H]2[C@H](O)/C=C/C(=O)O1 [BREFELDIN A]
experimental-value: 140

Okay, next one:
## Input Requested read-out: IC50 at 72 h. Entry: `C[C@H]1CCC/C=C/[C@@H]2C[C@H](O)C[C@H]2[C@H](OC(=O)c2cccnc2)/C=C/C(=O)O1`
## Output 790

----------
- method-summary: Selectivity index, ratio of IC50 for cytotoxicity against human LO2 cells to IC50 for antiproliferative activity against human T24 cells
- Type: toxicity, cell-based
- cond: LO2 cells and T24 cells, read-out: Ratio IC50
observed-property: selectivity ratio
The reply should be a number, written without any unit.

## Input Requested read-out: selectivity ratio. Entry: `C[C@H]1CCC/C=C/[C@@H]2C[C@H](O)C[C@H]2[C@H](OC(=O)c2cccnc2)/C=C/C(=O)O1`
## Output 3.59

----------
- method-summary: Volume of distribution at steady state in Sprague-Dawley rat at 5 mg/kg, iv measured upto 24 hrs
- Assay type: ADME, organism-based
- cond: in vivo, read-out: Vdss
observed-property: Vd (L/kg)
Field: numeric (L/kg). Do not append units.

## Input Requested read-out: Vd. Entry: `C[C@H]1CCC/C=C/[C@@H]2C[C@H](O)C[C@H]2[C@H](OC(=O)c2cccnc2)/C=C/C(=O)O1`
## Output 0.59

----------
- method-summary: Half life in Sprague-Dawley rat at 5 mg/kg, iv measured upto 24 hrs
- Type: ADME, organism-based
- cond: in vivo
observed-property: half-life (min)
Field: numeric (min). Do not append units.

## Input Requested read-out: half-life. Entry: `C[C@H]1CCC/C=C/[C@@H]2C[C@H](O)C[C@H]2[C@H](OC(=O)c2cccnc2)/C=C/C(=O)O1`
## Output 21.6

----------
- method-summary: Solubility of the compound in 5% saline and 50% PEG400
- Assay type: physicochemical
observed-property: solubility (µg/mL)
Field: numeric (µg/mL). Do not append units.

## Input Requested read-out: solubility. Entry: `C[C@H]1CCC/C=C/[C@@H]2C[C@H](O)C[C@H]2[C@H](OC(=O)c2cccnc2)/C=C/C(=O)O1`
## Output 5000

----------
- method-summary: Solubility of the compound in aqueous saline
- Assay type: physicochemical
observed-property: solubility

## Input Requested read-out: solubility. Entry: `C[C@H]1CCC/C=C/[C@@H]2C[C@H](O)C[C@H]2[C@H](OC(=O)c2cccnc2)/C=C/C(=O)O1`
## Output < 1000 µg/mL

----------
- method-summary: AUC(0 to t) in Sprague-Dawley rat at 5 mg/kg, iv measured upto 24 hrs
- Assay type: ADME, organism-based
- cond: in vivo
observed-property: AUC(0-t) at 24 h (ng·h/mL)
Field: numeric (ng·h/mL). Do not append units.

## Input Requested read-out: AUC(0-t) at 24 h. Entry: `C[C@H]1CCC/C=C/[C@@H]2C[C@H](O)C[C@H]2[C@H](OC(=O)c2cccnc2)/C=C/C(=O)O1`
## Output 1350

Reference source: ChEMBL document CHEMBL6103652
